# measured.on: Gag-Pol polyprotein [613-1167,R896S,E946D,S1117V]/[618-1043,R896S,E946D] (Human immunodeficiency virus 2, UniProt P04584, E946D/R896S/S1117V)
# Construct: 613-1167; 618-1043
# Sequence (P04584 613-1167, looked up, stated change not applied): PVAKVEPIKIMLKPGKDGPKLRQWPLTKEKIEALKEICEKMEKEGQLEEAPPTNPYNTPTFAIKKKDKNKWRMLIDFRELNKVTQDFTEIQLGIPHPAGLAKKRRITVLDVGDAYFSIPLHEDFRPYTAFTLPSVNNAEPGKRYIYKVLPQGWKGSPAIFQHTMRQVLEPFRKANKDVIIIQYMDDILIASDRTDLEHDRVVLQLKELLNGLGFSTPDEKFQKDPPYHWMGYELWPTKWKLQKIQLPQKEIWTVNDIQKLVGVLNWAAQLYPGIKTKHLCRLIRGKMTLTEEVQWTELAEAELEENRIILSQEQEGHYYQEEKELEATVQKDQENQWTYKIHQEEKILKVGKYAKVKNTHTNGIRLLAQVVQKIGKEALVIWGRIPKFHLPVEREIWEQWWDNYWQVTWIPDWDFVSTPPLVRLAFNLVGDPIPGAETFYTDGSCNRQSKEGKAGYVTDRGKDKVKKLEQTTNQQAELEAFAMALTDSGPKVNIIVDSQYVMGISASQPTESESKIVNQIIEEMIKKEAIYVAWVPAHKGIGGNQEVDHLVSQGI
# Sequence (P04584 618-1043, looked up, stated change not applied): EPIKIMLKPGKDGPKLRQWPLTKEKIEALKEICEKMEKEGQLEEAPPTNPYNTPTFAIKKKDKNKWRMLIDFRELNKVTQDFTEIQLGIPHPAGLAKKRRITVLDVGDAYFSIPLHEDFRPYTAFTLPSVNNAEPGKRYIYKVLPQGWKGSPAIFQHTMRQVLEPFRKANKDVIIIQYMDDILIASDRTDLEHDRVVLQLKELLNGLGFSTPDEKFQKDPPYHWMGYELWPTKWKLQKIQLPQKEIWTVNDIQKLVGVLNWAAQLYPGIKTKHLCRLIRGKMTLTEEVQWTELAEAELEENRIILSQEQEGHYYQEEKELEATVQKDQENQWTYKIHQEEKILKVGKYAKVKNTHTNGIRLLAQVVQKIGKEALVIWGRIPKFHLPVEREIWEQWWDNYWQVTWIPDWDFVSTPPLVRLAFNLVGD
# experiment.summary: HIV RT Assay
# condition.summary: pH 7.8; 37 °C
assay.metric: IC50

Input: Respond only with IC50 recorded for `Cc1ccnc2c1NC(=O)c1cccnc1N2C1CC1`
Output: > 20 µM

Input: Annotate the compound `COC(=O)c1cccn1S(=O)(=O)c1cc(Cl)ccc1N` with its measured IC50.
Output: > 20 µM

Input: Give me measured IC50, please, for this compound: `CCOC(=O)c1cccn1S(=O)(=O)c1cc(Cl)ccc1N`
Output: > 20 µM
